test: Plasma clearance in Sprague-Dawley rat at 3 mg/kg, iv; format: ADME, organism-based; parameters: dose 3 mg/kg, route intravenous
reported-metric: clearance (mL/min/kg)

compound	measurement-unit	test-result
COc1cc2c(cc1OC)CN(c1nc(N3CCCN(C(=O)N4CC(O)C(O)C4)CC3)nc3cc(OC)c(OC)cc13)CC2 (stereo unspecified)	mL/min/kg	135

* * *

test: Plasma clearance in Sprague-Dawley rat at 0.5 mg/kg, iv; type: ADME, organism-based; design: dose 0.5 mg/kg, route intravenous

molecule	clearance, mL/min/kg
COc1cc2nc(N3CCc4c(cccc4NS(C)(=O)=O)C3)nc(N)c2c(-c2ccccn2)c1OC [TAPRIZOSIN]	22
COc1cc2nc(N3CCCN(C(=O)N4CCOCC4)CC3)cc(N)c2c(-c2ccc(F)cc2)c1OC	91
